# method_notes: soluble on expression in E. coli; label from the status in PepcDB or PDB records
result_type: soluble on expression in E. coli

- macromolecule_sequence: "MLPLPWWMLGVGPEEEADESSDYDMVDGHSIEVQESVPTTPVSVFHTPSQSSIIDISDQLVDLPTFLKVAKRRSSTVLETATPAKTPKIQLSERRRKFQRNDTEVMIKTGEPVVDCDETLGLNWLFDTDYPRDAGSGDLLNSTFRIDHRNHGEGTSQITESPKNRDFPLFFSSFDDTTVLFNTTIAGDIDVNERNQASGDWIFRKDKSPTNDPIENDQETDEKTKSELGDGGEIVFKEPVQSTKKTRGRKRGTSVRIEKLSTSRRTSAKKKEEKQKETETFDADKNENPSTPTAPPTMTRRHTPSRKAKTNRTFRL"
  result_type: "soluble on expression in E. coli"
  result: "not soluble"
- macromolecule_sequence: "MQQLPKLDLKNKVSAQEWQLRVDLAACYRLLQMHGWDDLIHTHISVCIPGTEHILINAFGLAFEEITASNLVKIDIKGNIIDKDCPFEINPAGFTIHSAVHEVRHDDICALHVHTNETIAVASVEEGLLPLSQYSMFALASMSYHDYEGLAVNDDEKLRLQNDLGDKNFMLLRNHGALTMGKTIGDAFMHMYDLTRACQIQLQVMATGMKPIYAPQSIIDGIKAQANIVHDGETGGQKAWPAMLRRVYRNDPTFAE"
  result_type: "soluble on expression in E. coli"
  result: "not soluble"
- macromolecule_sequence: "MSLASNVLLQASRLGEMVIKRGGATGLMVHRDTKENNLNVKFKFTSENQERIKAIMDIYPEGHKAGALIPLLDLAQRQHGWLPISAMHEVAKILEVPRMRAYEVATFYTMFNRQPVGKYFLQVCATTPCMLRGAETITETIEKKLGIHAGETTKDGLFTLAEVECLGACVNAPMIQINDDYFEDLTPKDVNEILDDLKAGRKPAAGPRSGRLAAEPFGELTSLKETPPGPGFGLQAALK"
  result_type: "soluble on expression in E. coli"
  result: "not soluble"

* * *

# method_notes: soluble on expression in E. coli; label from the status in PepcDB or PDB records

- macromolecule_sequence: "QQCGQTAPLINERLSYMKDVAGYKAENHLPIEDRIQEEKVINSAMAQAESLGLNGESIKPLMVAQINAAKAIQYRYRADWLSQPEPGWQPKPLDDVRANIGELSTKILEQIAEELKTCKPAEMGDKAHFINTIRQHNLTSADVEAIFSTFNQVKLK"
  soluble on expression in E. coli: "soluble"
- macromolecule_sequence: "MESAKSIIGGHQNVILMRHGDRLDNFEPLWTSTAARPWDPPLAQDGKDRAFRTGQRIRSQLGVPIHRVFVSPFLRCIQTASEVVAALSAVDFDPIAMSSKDVLSIDNTKIKVAIEFGLSEIPHPIFIKSEVAPKDGKFDFKISDLEAMFPEGTVDSNVDMVYKEVPEWGESAQAFEDRYYKTVKILAEKYPSENLLLVTHWGAVSVAFYNYFKDATKYVVDYCGSVEMRRQILNGDGFGKFEVVTSHGVSYKYTKIPVHDHVVVSRQSPL"
  soluble on expression in E. coli: "soluble"
- macromolecule_sequence: "MLKQSLATLLLCSTLSPLAVVLPTLAGPGDGGMGWGAKVENLNLTPEQRQNLQAIRQRYQSQIEETRTQLRTAKDELRRLMASNASDEQIRAKHAQVQQLQQKLATLRFESMLATRKILTPEQRQALAERMQNRQGQRRLERLEHHHHHH"
  soluble on expression in E. coli: "soluble"
